Listed next: entries and their corresponding inhibition.
Molecular target: Aminopeptidase N (Plasmodium falciparum (isolate 3D7))
Assay: malaria alanyl aminopeptidase activity blockers – biochemical, fluorogenic H-Leu-NHMec substrate, 1536-well (AID 1445);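 also: plate controls were DMSO full reaction for no effect and no enzyme background for full effect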
Details: recombinant M1AAP, H-Leu-NHMec fluorogenic kinetic assay; at 30 µM, active compounds read high unless noted
In all, about 220,000 compounds went through this assay and about 910 (0.41%) were called active. The sample as a whole holds a higher share of actives than the screen did. Results with a measured potency or affinity are listed apart.
Entry rule: numbers only, all in %.

Below, each entry is followed by its recorded inhibition result.
| Line notation | Assay system | inhibition [%] |
| --- | --- | --- |
| O=S(=O)(Nc1cccnc1)c1cccc(Cl)c1 | Aminopeptidase N (Plasmodium falciparum (isolate 3D7)) | -0.41 |
| O=S(=O)(Nc1cccnc1)c1ccc(Cl)cc1 | Aminopeptidase N (Plasmodium falciparum (isolate 3D7)) | 1.51 |
| O=c1c2cc(Cl)ccc2nc(-c2ccccc2)n1O | Aminopeptidase N (Plasmodium falciparum (isolate 3D7)) | 3.06 |
| CCOC(=O)c1cc(-c2ccc(/C=N\n3cnnc3)o2)ccc1Cl | Aminopeptidase N (Plasmodium falciparum (isolate 3D7)) | 3.07 |
| O=C(N/N=C/c1ccco1)c1cc(Br)ccc1OCc1ccccc1 | Aminopeptidase N (Plasmodium falciparum (isolate 3D7)) | 4.59 |

What does the data say about its inhibition? Entry: `CC1=C(C#N)C(=O)NC(=O)/C1=C/c1ccc(-c2ccc(S(N)(=O)=O)cc2)o1` 28.5

Check `Cc1ccc2oc(=O)n(Cc3ccccc3OC(C)C)c2c1` too. 1.91

====

Target: Aminopeptidase N (Plasmodium falciparum (isolate 3D7))
Experiment: malaria alanyl aminopeptidase activity blockers – biochemical, fluorogenic H-Leu-NHMec substrate, 1536-well (AID 1445);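 also: plate controls were DMSO full reaction for no effect and no enzyme background for full effect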
Conditions: recombinant M1AAP, H-Leu-NHMec fluorogenic kinetic assay; at 30 µM, active compounds read high unless noted
Screen size: about 220,000 compounds; about 910 (0.41%) were called active. The sample holds actives, similar compounds and a random draw of the others, so the mix is not that of the screen. Entries with a potency or affinity are not part of this list.
Attribute measured: inhibition (%)
Entry rule: numbers only, all in %.

Below, each entry is followed by its recorded inhibition result.
| Molecule | inhibition / % |
| --- | --- |
| O=C(Cc1cccs1)N/N=C/C=C/c1ccccc1[N+](=O)[O-] | 2.54 |
| N#Cc1cc2c(N)c(C(=O)Nc3ccccc3)sc2nc1N | -0.33 |
| FC(F)(F)c1cccc(OCCN2CCN(Cc3ccccc3)CC2)c1 | -0.96 |

What does the data say about its inhibition? Entry: O=C(NC1CCCC1)C(c1ccccc1)N(C(=O)c1ccco1)C1CCCC1 (stereo unspecified) 17.7

Check `Cc1cnc(NC(=O)CSc2nnc(-c3ccncc3)n2C2CCCCC2)s1` too. 4.18

Check CC(CCc1ccco1)NC(=O)Cn1ncc2c1-c1ccccc1OC2 (stereo unspecified) too. 12.1

Check `CC(=O)c1cc(-c2ccccc2)n(CC(=O)NC(C)(C)C)c1C` too. 5.46

Check `C=CCn1c(=N)c(C(=O)NCCCOC)cc2c(=O)n3cc(C)ccc3nc21` too. 4.34

Check `O=C(Cc1c(Cl)cccc1Cl)NCCc1ccc(Cl)cc1` too. 13.8

Check O=C1CC(SC(=Nc2ccccc2)Nc2ccccc2)C(=O)N1c1ccc(Cl)c(Cl)c1 (stereo unspecified) too. -2.66

Check `COc1cccc(CNc2cnc3ccccc3c2)c1O` too. 2.44

Check CC(CN1CCCCC1)OC(=O)C1c2ccccc2Oc2ccccc21 (stereo unspecified) too. 1.62

Check `Cc1ccc(NC(=O)COC(=O)CNC(=O)c2ccc(C)s2)cc1` too. 5.25

Check O=C(NCc1ccccc1)C1CCCN(S(=O)(=O)c2cccc3nonc23)C1 (stereo unspecified) too. 34.1

Check `CCn1cc(S(=O)(=O)Nc2ccccc2C(F)(F)F)cn1` too. -0.46

Check `O=C(N/N=C/c1ccccn1)c1cc(-c2ccccc2)nc2ccccc12` too. -10.8

Check `Cc1ccc(SCC(=O)Nc2ccccc2C(=O)O)cc1` too. -0.6

Check `O=C(O)c1ccc(-c2nc3ccccc3s2)o1` too. -2.11

Check Cc1ccc(C2=NNC(=O)C(c3c[nH]c4ccccc34)C2)cc1 (stereo unspecified) too. 1.55

Check `Cc1ccc2c(c1)-c1c(cnn1CC(=O)N(Cc1ccco1)C1CCCCC1)CO2` too. 4.81

Check `COc1ccccc1NC1=NC(C)(C)N=C(N)N1` too. 0.34
